# Measured Target: UniProt:P02768
# Sequence (P02768 whole entry): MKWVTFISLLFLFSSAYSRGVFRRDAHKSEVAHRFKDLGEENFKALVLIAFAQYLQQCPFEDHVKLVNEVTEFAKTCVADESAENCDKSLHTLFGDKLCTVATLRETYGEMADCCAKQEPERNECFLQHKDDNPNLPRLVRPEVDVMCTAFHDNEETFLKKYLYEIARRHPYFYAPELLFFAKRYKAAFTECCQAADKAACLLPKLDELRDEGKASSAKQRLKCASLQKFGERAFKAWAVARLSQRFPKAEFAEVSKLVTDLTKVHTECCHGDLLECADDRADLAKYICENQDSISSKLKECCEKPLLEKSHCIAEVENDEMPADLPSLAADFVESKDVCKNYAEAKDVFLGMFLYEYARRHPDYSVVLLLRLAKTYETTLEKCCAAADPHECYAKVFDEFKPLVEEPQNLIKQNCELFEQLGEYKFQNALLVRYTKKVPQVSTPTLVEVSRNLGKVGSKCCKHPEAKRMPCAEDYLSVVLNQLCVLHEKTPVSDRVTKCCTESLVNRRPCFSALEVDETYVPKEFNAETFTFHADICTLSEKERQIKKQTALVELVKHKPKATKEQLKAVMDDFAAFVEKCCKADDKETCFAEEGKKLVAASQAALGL
# Experiment: Compound was tested for its binding ability to site II of Human serum albumin (HSA) expressed as binding constant
K listing for selected compounds.
Return type: number; implicit unit M⁻¹.

Consider the worked cases shown below.
CCc1c(C)c2cc3nc(c(C(=O)OC)c4nc(cc5[nH]c(cc1[nH]2)C1(C)C5=CC=C(C(=O)OC)C1C(=O)OC)C(C)=C4C(=O)OC)[C@@H](CCC(=O)OC)[C@@H]3C (stereo not given in full) | 14400000
CCCCCCN1C(=O)C2=C(C)c3cc4[nH]c(cc5[nH]c(cc6nc(c(c2n3)C1=O)[C@@H](CCC(=O)OC)[C@@H]6C)c(C)c5CC)C1(C)C4=CC=C(C(=O)OC)C1C(=O)OC (stereo not given in full) | 16100000
CCc1c(C)c2cc3nc(c4c5nc(cc6[nH]c(cc1[nH]2)C1(C)C6=CC=C(C(=O)OC)C1C(=O)OC)C(C)=C5C(=O)C4)[C@@H](CCC(=O)OC)[C@@H]3C (stereo not given in full) | 10600000

input: Can you look up K on UniProt:P02768 for CCc1c(C)c2cc3nc(c4c5nc(cc6[nH]c(cc1[nH]2)C1(C)C6=CC=C(C(=O)OC)C1C(=O)OC)C(C)=C5C(=O)N(Cc1cc(C(F)(F)F)cc(C(F)(F)F)c1)C4=O)[C@@H](CCC(=O)OC)[C@@H]3C (stereo not given in full) ?
output: 16000000

input: Entry CCc1c(C)c2cc3nc(c(CC(=O)OC)c4nc(cc5[nH]c(cc1[nH]2)C1(C)C5=CC=C(C(=O)OC)C1C(=O)OC)C(C)=C4C(=O)OC)[C@@H](CCC(=O)OC)[C@@H]3C (stereo not given in full) please
output: 17500000

Values from ChEMBL document CHEMBL1145918
